Each item that follows carries a reported growth inhibition.
Test description: NCI Yeast Anticancer Drug Screen. Data for the rad50 strain (AID 155);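 also: 0% = growth of vehicle-only cultures of the same strain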
Measurement parameters: S. cerevisiae rad50 strain growth inhibition, stronger effect = higher value; at 50.0 µM unless noted
The panel holds about 79,000 compounds, 15% with a hit somewhere; the sample as a whole holds those more often. Calls of active or inactive are those of the source. Rule as the data show it: active = growth inhibition above about 70%; inactive = the rest.
Endpoint name: growth inhibition

- Compound: "CN1C(=O)N(C2CCCCC2)C(=O)C(C)(CN2CCCCC2)C1=O (stereo not given)"
  Endpoint name: "growth inhibition"
  Observed value: "12.7% (inactive)"
- Compound: "Cc1ccc([N+](=O)[O-])cc1N1C(=O)c2ccccc2C1=O"
  Endpoint name: "growth inhibition"
  Observed value: "14.5% (inactive)"
- Compound: "Cc1ccc(N2C(=O)C3CSCN3C2=O)cc1 (stereo not given)"
  Endpoint name: "growth inhibition"
  Observed value: "31.2% (inactive)"
- Compound: "COc1cc2c(cc1C(C)c1ccc(Cl)cc1)OCO2 (stereo not given)"
  Endpoint name: "growth inhibition"
  Observed value: "12.8% (inactive)"
- Compound: "NS(=O)(=O)c1ccc(N=Nc2ncccc2O)cc1"
  Endpoint name: "growth inhibition"
  Observed value: "19.4% (inactive)"
- Compound: "CC1=CCC(CC2CO2)C1(C)C (stereo not given)"
  Endpoint name: "growth inhibition"
  Observed value: "-27.6% (inactive)"
- Compound: "O=C(NNC(=O)c1ccc(Cl)c(Cl)c1)c1ccccc1"
  Endpoint name: "growth inhibition"
  Observed value: "-13.8% (inactive)"
- Compound: "C/C(=N/NC(N)=O)C1CCc2ccccc2C1 (stereo not given)"
  Endpoint name: "growth inhibition"
  Observed value: "43% (inactive)"
- Compound: "CC(C)CCC[C@@H](C)[C@H]1CC[C@H]2[C@@H]3CCC4=CC(=O)NCC[C@]4(C)[C@H]3CC[C@]12C"
  Endpoint name: "growth inhibition"
  Observed value: "12.8% (inactive)"
- Compound: "CC1(C)OC(=O)C(=Cc2ccc3c(c2)OCO3)C(=O)O1"
  Endpoint name: "growth inhibition"
  Observed value: "16.1% (inactive)"
- Compound: "C=CCNC(=S)NNc1nc(C)cc(=O)[nH]1"
  Endpoint name: "growth inhibition"
  Observed value: "30.1% (inactive)"
- Compound: "COc1ccc(COC(=O)Nc2ccccc2F)c(OC)c1OC"
  Endpoint name: "growth inhibition"
  Observed value: "3.15% (inactive)"
- Compound: "CC(O)CNC1=CC(=O)C(=O)c2ccccc21 (stereo not given)"
  Endpoint name: "growth inhibition"
  Observed value: "-13.3% (inactive)"
- Compound: "CCCCCCCCCCCCOC(=O)NC1c2ccccc2Oc2ccccc21"
  Endpoint name: "growth inhibition"
  Observed value: "30.4% (inactive)"
- Compound: "CC(=O)OCC(C)(O)C#N (stereo not given)"
  Endpoint name: "growth inhibition"
  Observed value: "-19.8% (inactive)"
- Compound: "Clc1nc2n(c1/C=C/c1cccs1)CCS2"
  Endpoint name: "growth inhibition"
  Observed value: "28.4% (inactive)"
- Compound: "[N-]=[N+]=Nc1cccc(-c2n[nH]c(Cl)cc2=O)c1"
  Endpoint name: "growth inhibition"
  Observed value: "-19.9% (inactive)"
- Compound: "C=CC[N+]1(CCOC(=O)C(c2ccccc2)C2C=CCC2)CCCC1 (stereo not given)"
  Endpoint name: "growth inhibition"
  Observed value: "-17.1% (inactive)"
- Compound: "O=[N+]([O-])c1ccc(CC(Cl)c2ccccc2)cc1 (stereo not given)"
  Endpoint name: "growth inhibition"
  Observed value: "40.8% (inactive)"
- Compound: "Cc1ccc(O)c(C=NCCN=Cc2cc(C)ccc2O)c1.[Zn]"
  Endpoint name: "growth inhibition"
  Observed value: "-14.4% (inactive)"
- Compound: "O=C1CSC(c2ccc([N+](=O)[O-])cc2)N1c1ccc(-n2c(-c3ccccc3)nc3ccccc3c2=O)cc1 (stereo not given)"
  Endpoint name: "growth inhibition"
  Observed value: "2.5% (inactive)"
- Compound: "O=C1N=C2Sc3ccc4ccccc4c3N2C1=O"
  Endpoint name: "growth inhibition"
  Observed value: "21.2% (inactive)"
- Compound: "Cc1ccc(C)c(NC(=O)NC(C)(C)C)c1"
  Endpoint name: "growth inhibition"
  Observed value: "-0.2% (inactive)"
- Compound: "CCOC(=O)N/N=C/c1ccccc1C"
  Endpoint name: "growth inhibition"
  Observed value: "-9.05% (inactive)"
- Compound: "ClC1CCC[N-]C1.ClC1CCC[N-]C1.[Cl][Pt+2][Cl] (stereo not given)"
  Endpoint name: "growth inhibition"
  Observed value: "-7.1% (inactive)"
